What Barr2+GRK2 hCB1 response was measured for each of the following?
- Experimental Target: hCB1 (Homo sapiens)
- Assay Method Text: bioSensAll ebBRET signaling profiling, hCB1
- Type: cell-based
- Set-up: host or cells: HEK293SL cells, transient PEI transfection
- Condition Details: Barr2+GRK2 biosensor; Log [Compound] (M) -6.31878
# respond with the number and nothing more

Param readout= Barr2+GRK2 hCB1 response; system= hCB1 (Homo sapiens); entry= Cn1nc(-c2nnc(C(C)(C)Oc3ccc(Cl)cc3)o2)c2ccccc2c1=O ; returns value. -46.282

// same read-out, input: Cc1nn(Cc2ccc(Cl)cc2)c(C)c1C(=O)OCC1CSc2ccccc2O1 (stereo not drawn) -47.8774

// same read-out, input: Cc1nc(CC2CC2)oc1-c1nc(Cc2cc3c(cc2Br)OCO3)no1 10.513

// same read-out, input: Brc1cc2c(cc1Cc1noc(-c3cnn(CC4CC4)c3)n1)OCO2 -50.749

// same read-out, input: Cc1c(C(=O)OCC2CSc3ccccc3O2)cnn1Cc1ccccc1 (stereo not drawn) -51.3872

// same read-out, input: Cn1nc(-c2nnc(C(C)(C)Oc3ccc(C(F)(F)F)cc3)o2)c2ccccc2c1=O -30.3284

====

What Gi1 hCB1 response was measured for each of the following?
- Experimental Target: hCB1 (Homo sapiens, UniProt P21554)
- Sequence (P21554 whole entry): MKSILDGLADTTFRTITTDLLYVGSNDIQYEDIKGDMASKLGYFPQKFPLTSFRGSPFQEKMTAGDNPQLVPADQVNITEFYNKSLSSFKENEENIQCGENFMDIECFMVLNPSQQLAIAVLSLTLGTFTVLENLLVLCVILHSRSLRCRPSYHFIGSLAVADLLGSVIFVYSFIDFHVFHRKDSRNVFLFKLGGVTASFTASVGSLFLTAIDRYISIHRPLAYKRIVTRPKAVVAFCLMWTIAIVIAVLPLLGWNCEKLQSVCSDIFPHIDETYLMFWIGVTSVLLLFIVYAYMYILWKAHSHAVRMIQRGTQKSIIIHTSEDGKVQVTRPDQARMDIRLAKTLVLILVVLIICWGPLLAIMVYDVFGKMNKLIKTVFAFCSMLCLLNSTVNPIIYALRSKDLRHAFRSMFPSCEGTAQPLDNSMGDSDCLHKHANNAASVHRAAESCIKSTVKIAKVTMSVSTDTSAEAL
- Assay Method Text: bioSensAll ebBRET signaling profiling, hCB1
- Format: cell-based
- Parameters: host or cells: HEK293SL cells, transient PEI transfection
- Condition Details: Gi1 biosensor; Log [Compound] (M) -10.5529
# respond with the number and nothing more

Could you tell me which Gi1 hCB1 response is on file for COC(=O)C(NC(=O)c1cc(C)n(-c2cccc(C(F)(F)F)c2)n1)c1cccs1 (centres unmarked) [‘60154] ? 8.852

// same read-out, input: Cc1cc(C(=O)N(C)C(c2ccccc2)c2ccco2)nn1-c1cccc(C(F)(F)F)c1 (centres unmarked) [‘1082] 5.92

// same read-out, input: CC(=O)C(c1cccs1)N(C)C(=O)c1cc(C)n(-c2cccc(C(F)(F)F)c2)n1 (centres unmarked) [‘6829] -8.091

// same read-out, input: Cc1cc(C(=O)N(C)C(c2ccco2)c2ccco2)nn1-c1cccc(C(F)(F)F)c1 [‘4388] 6.658

// same read-out, input: COc1cccc(C(NC(=O)c2cc(C)n(-c3cccc(C(F)(F)F)c3)n2)c2ccco2)c1 (centres unmarked) [‘1087] -6.726

// same read-out, input: COC(=O)[C@@H]1[C@@H]2CCC[C@@H]2CN1C(=O)c1cc(C)n(-c2cccc(C(F)(F)F)c2)n1 [‘6439] -6.905

// same read-out, input: Cc1cc(C(=O)NC(c2ccccc2)c2ccco2)nn1-c1cccc(C#N)c1 (centres unmarked) [‘12565] 14.9617

// same read-out, input: COC(=O)[C@@H]1[C@@H]2CC[C@@H]2CN1C(=O)c1cc(C)n(-c2cccc(C(F)(F)F)c2)n1 [‘6448] -11.5156

====

- Assay Method Text: Pharmacokinetics: plasma, brain, CSF
- Condition Details: male, CD-1, mouse, brain, intraperitoneal, 0.2 mg/kg
What concentration at 1 min was measured for each of the following?
# value in ng/g; strip the unit string

Could you tell me which concentration at 1 min is on file for COC(=O)[C@@](C)(NC(=O)c1cc(C)n(-c2cccc(C(F)(F)F)c2)n1)c1cccs1 [‘1350] ? 0

// same read-out, input: Cc1cc(C(=O)NC(C)(c2ccco2)c2ccco2)nn1-c1cccc(C(F)(F)F)c1 [‘4936] 0
